Cited source for all entries: patent US20250326739A1

Reported IC50 values for a set of molecules
molecular target: human CD38 (Homo sapiens (Human)); assay: NAD+ cyclase activity assay with human recombinant CD38 protein; conditions: 1.9 nM human CD38, 15.8 μM e-NAD substrate, fluorescence read-out
Where a name gives a salt, the structure may show the parent alone.
parameterMeasured: IC50

- Cc1ccc(-n2ccnc2)nc1C(=O)NC1CCN(S(C)(=O)=O)CC1 [Compound 79A]: 100 to 1000 nM
- Cc1cc(C(=O)N[C@@H]2COCCC2(F)F)nc(-n2ccnc2)c1 [Compound 71A]: 30 to 100 nM
- Cc1cc(C(=O)N[C@H]2COCCC2(F)F)nc(-n2ccnc2)c1 [Compound 70A]: 30 to 100 nM
- Cc1cc(C(=O)N[C@H]2CCCNC2)nc(-n2ccnc2)c1 [Compound 48A, dihydrochloride]: > 1000 nM
- CNS(=O)(=O)N1CCC(NC(=O)c2cc(C)cc(-n3ccnc3)n2)CC1 [Compound 14A]: 100 to 1000 nM
- CC(=O)N1CCC(NC(=O)c2cc(C)cc(-n3ccnc3)n2)CC1 [Compound 10A]: 30 to 100 nM
- Cc1cc(C(=O)NC2CCC2)nc(-n2ccnc2)c1 [Compound 12A]: 30 to 100 nM
- Cc1cc(C(=O)N[C@H]2CCNC2)nc(-n2ccnc2)c1 [Compound 41A, hydrochloride]: > 1000 nM
- Cc1cc(C(=O)NC2CN(S(C)(=O)=O)C2)nc(-n2ccnc2)c1 [Compound 7A]: 30 to 100 nM
- O=C(N[C@@H]1CCCOC1)c1cc(C(F)(F)F)cc(-n2ccnc2)n1 [Compound 62A]: < 30 nM
- O=C(N[C@@H]1CCCOC1)c1ccnc(-n2ccnc2)n1 [Compound 80A]: < 30 nM
- Cc1cc(C(=O)N[C@H]2COCC(F)(F)C2)nc(-n2ccnc2)c1 [Compound 66A]: 30 to 100 nM
- Cc1cc(C(=O)NC2CCN(S(C)(=O)=O)CC2)nc(-n2ccnc2)n1 [Compound 61A]: < 30 nM
- O=C(N[C@@H]1CCS(=O)(=O)C1)c1ccnc(-n2ccnc2)n1 [Compound 74A]: < 30 nM
- Cc1cc(C(=O)N[C@@H]2CCCS(=O)(=O)C2)nc(-n2ccnc2)c1 [Compound 57A]: 30 to 100 nM
- O=C(N[C@@H]1CCCOC1)c1cc(C(F)(F)F)nc(-n2ccnc2)n1 [Compound 76A]: 30 to 100 nM
- Cc1cc(C(=O)NC2CCN(S(=O)(=O)C3CCCCC3)CC2)nc(-n2ccnc2)c1 [Compound 5A]: < 30 nM
- Cc1cc(C(=O)N[C@@H]2CCN(S(C)(=O)=O)C2)nc(-n2ccnc2)c1 [Compound 53A]: 100 to 1000 nM

* * *

Reported pIC50 values for a set of compounds
biological target: human CD38 (Homo sapiens (Human), UniProt P28907); assay: NAD+ cyclase activity assay with human recombinant CD38 protein; settings: 1.9 nM human CD38, 15.8 μM e-NAD substrate, fluorescence read-out
Sequence (P28907 whole entry): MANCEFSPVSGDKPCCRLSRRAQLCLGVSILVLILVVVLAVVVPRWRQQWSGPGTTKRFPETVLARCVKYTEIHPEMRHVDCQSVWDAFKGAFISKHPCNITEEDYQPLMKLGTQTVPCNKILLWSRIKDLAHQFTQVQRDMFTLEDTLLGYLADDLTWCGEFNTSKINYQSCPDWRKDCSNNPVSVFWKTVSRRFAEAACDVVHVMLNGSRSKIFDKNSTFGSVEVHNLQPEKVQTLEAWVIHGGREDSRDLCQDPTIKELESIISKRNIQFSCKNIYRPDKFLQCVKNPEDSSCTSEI
pIC50: −log10 of the molar value. Where a name gives a salt, the structure may show the parent alone.
parameterMeasured: pIC50

• Cc1cc(C(=O)NC2CCOCC2(C)C)nc(-n2ccnc2)c1 (stereo not shown) [Compound 27A] = 6.00 to 7.00
• Cc1cc(C(=O)N[C@@H]2CCN(C(=O)OC(C)(C)C)C2)nc(-n2ccnc2)c1 [Compound 43A] = > 7.52
• Cc1cc(C(=O)N[C@@H]2CCCN(C(=O)OC(C)(C)C)C2)nc(-n2ccnc2)c1 [Compound 49A] = 7.00 to 7.52
• Cc1cc(C(=O)N[C@@H]2CCCN(C)C2=O)nc(-n2ccnc2)c1 [Compound 56A] = < 6.00
• CCCC(=O)N1CCC(NC(=O)c2cc(C)cc(-n3ccnc3)n2)CC1 [Compound 13A] = 7.00 to 7.52
• Cc1cc(C(=O)N[C@@H]2CCCN(C3COC3)C2)nc(-n2ccnc2)c1 [Compound 83A] = < 6.00
• Cc1cc(C(=O)NC2CCS(=O)(=O)C2)nc(-n2ccnc2)c1 (stereo not shown) [Compound 23A] = 7.00 to 7.52
• Cc1cc(C(=O)N[C@@H]2CCCNC2)nc(-n2ccnc2)c1 [Compound 51A, dihydrochloride] = < 6.00
• Cc1cc(C(=O)NC2CCOC(C)C2)nc(-n2ccnc2)c1 (stereo not shown) [Compound 30A] = 7.00 to 7.52
• Cc1cc(C(=O)N[C@H]2CCCOC2)nc(-n2ccnc2)c1 [Compound 45A] = 6.00 to 7.00
• Cc1cc(C(=O)N[C@@H]2CCS(=O)(=O)C2)nc(-n2ccnc2)n1 [Compound 68A] = > 7.52
• Cc1cc(C(=O)N[C@@H]2CCCNC2=O)nc(-n2ccnc2)c1 [Compound 58A] = < 6.00
• Cc1cc(C(=O)NC2CC3CCC(C2)O3)nc(-n2ccnc2)c1 (stereo not shown) [Compound 28A] = 6.00 to 7.00
• Cc1cc(C(=O)NC2CCC(F)(F)CC2)nc(-n2ccnc2)c1 = > 7.52
• Cc1cc(C(=O)N[C@H]2CCCNC2=O)nc(-n2ccnc2)c1 [Compound 60A] = 6.00 to 7.00
• CS(=O)(=O)N1CCC(NC(=O)c2cc(C(F)(F)F)cc(-n3ccnc3)n2)CC1 [Compound 82A] = > 7.52
• Cc1cc(C(=O)NC2C3COCC32)nc(-n2ccnc2)c1 (stereo not shown) [Compound 31A] = 7.00 to 7.52
• Cc1cc(C(=O)N[C@H]2CCCN(C)C2=O)nc(-n2ccnc2)c1 [Compound 85A] = 6.00 to 7.00
• Cc1cc(C(=O)NC2CCC(C)(C)OC2)nc(-n2ccnc2)c1 (stereo not shown) [Compound 29A] = 7.00 to 7.52
